target: Prostacyclin receptor (Rattus norvegicus); experiment: Intrinsic activity at rat recombinant IP receptor expressed in CHO-K1 cells incubated for 1 hr by HTRF cAMP assay relative to 1 uM iloprost; format: functional, cell-based
Entries annotated with measured Intrinsic activity

molecule | Intrinsic activity
COc1ccc(-c2nn(CC3CCc4c(cccc4OCC(=O)O)C3)c(=O)cc2-c2ccccc2)c(F)c1 (racemic) | 76%
O=C(O)COc1cccc2c1CCC(Cn1nc(-c3ccc(F)cc3)c(-c3ccccc3)cc1=O)C2 (racemic) | 93%
O=C(O)COc1cccc2c1CCC(Cn1nc(-c3ccccc3)c(-c3cccc(Cl)c3)cc1=O)C2 (racemic) | 62%
O=C(O)COc1cccc2c1CCC(Cn1nc(-c3ccccc3)c(-c3ccccc3)cc1=O)C2 (racemic) | 70%

Reference source for all entries: ChEMBL document CHEMBL3397017
